Reference source for all entries: ChEMBL document CHEMBL1949655

Tested on: Staphylococcus epidermidis
Experiment: microbe, parasite or virus in culture
Type: functional
Settings: Staphylococcus epidermidis, 81388, 24 h
Description: Antibacterial activity against methicillin-susceptible Staphylococcus epidermidis 81388 after 24 hrs by macrobroth dilution method in the presence of bovine serum albumin
valueType: MIC90 (µg/mL)
Express it in µg/mL; write the number only.

# input Which MIC90 value belongs to Cc1cc(O)cc(C)c1Cl ?
# output 512

---

System: Escherichia coli
Test: microbe, parasite or virus in culture
Format: functional
Details: isolate CAN-ICU 61714, 24 h
Description: Antibacterial activity against Escherichia coli isolate CAN-ICU 61714 after 24 hrs by macrobroth dilution method
valueType: MIC90 (µg/mL)
Report only the number, with the unit µg/mL understood.

entrySmiles	MIC90 [µg/mL]
CC(C)(C)CC(C)(C)c1ccc(OCc2cn(C[C@H]3O[C@@H](O[C@@H]4[C@@H](O)[C@H](N)C[C@H](N)[C@H]4O[C@H]4O[C@H](CN)[C@@H](O)[C@H](O)[C@H]4N)[C@H](O)[C@@H]3O[C@H]3O[C@@H](CN)[C@@H](O)[C@H](O)[C@H]3N)nn2)c(Cc2ccc(Cl)cc2Cl)c1	64
Cc1cc(OCc2cn(C[C@H]3O[C@@H](O[C@@H]4[C@@H](O)[C@H](N)C[C@H](N)[C@H]4O[C@H]4O[C@H](CN)[C@@H](O)[C@H](O)[C@H]4N)[C@H](O)[C@@H]3O[C@H]3O[C@@H](CN)[C@@H](O)[C@H](O)[C@H]3N)nn2)cc(C)c1Cl	16
Cc1cc(OCCCCc2cn(C[C@H]3O[C@@H](O[C@@H]4[C@@H](O)[C@H](N)C[C@H](N)[C@H]4O[C@H]4O[C@H](CN)[C@@H](O)[C@H](O)[C@H]4N)[C@H](O)[C@@H]3O[C@H]3O[C@@H](CN)[C@@H](O)[C@H](O)[C@H]3N)nn2)cc(C)c1Cl	16

We now examine a further molecule.
# input Entry under review: Cc1cc(O)cc(C)c1Cl . Reported MIC90?
# output 256
